Where do these numbers come from? They come from patent US20120316071A1.

target: T1, Recombinant Human DLL4 (R&D Systems Cat#1506-D4/CF) (human, UniProt Q9NR61 27-524); assay: ELISA, DLL4 coated on plate, Fab at 6.67 nM
T1 construct: Bought recombinant protein; also called delta-like protein 4; Delta-like 4
measurementKind: ELISA signal
Format: numeric value only, no unit, no commentary.

# input binder: Fab VH5-51_IGHD5-18*01>3_IGHJ4*01 G100K/G104T G24A/S28R/G35V (H:KT ARV) & V3-4_IGLJ1*01 (Fab, V domains shown, Fab expressed in E. coli; Plasmid A adds CH1 with His6 and Flag tags to the heavy chain; Plasmid E adds lambda CL to the light chain; also called H:KT ARV & L:wt; G100K/G104T G24A/S28R/G35V & parent) VH: EVQLVQSGAEVKKPGESLKISCKASGYRFTSYWIVWVRQMPGKGLEWMGIIYPGDSDTRYSPSFQGQVTISADKSISTAYLQWSSLKASDTAMYYCARRKYSYTYDYFDYWGQGTLVTVSS VL: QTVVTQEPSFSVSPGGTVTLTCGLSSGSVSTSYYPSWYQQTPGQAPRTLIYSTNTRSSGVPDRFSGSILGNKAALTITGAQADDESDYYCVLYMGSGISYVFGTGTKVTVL ; wanted: its ELISA signal 0.025

# input binder: Fab VH5-51_IGHD5-18*01>3_IGHJ4*01 G100K/G104T G24L/S28R/G35V (H:KT LRV) & V3-4_IGLJ1*01 (Fab, V domains shown, Fab expressed in E. coli; Plasmid A adds CH1 with His6 and Flag tags to the heavy chain; Plasmid E adds lambda CL to the light chain; also called H:KT LRV & L:wt; G100K/G104T G24L/S28R/G35V & parent) VH: EVQLVQSGAEVKKPGESLKISCKLSGYRFTSYWIVWVRQMPGKGLEWMGIIYPGDSDTRYSPSFQGQVTISADKSISTAYLQWSSLKASDTAMYYCARRKYSYTYDYFDYWGQGTLVTVSS VL: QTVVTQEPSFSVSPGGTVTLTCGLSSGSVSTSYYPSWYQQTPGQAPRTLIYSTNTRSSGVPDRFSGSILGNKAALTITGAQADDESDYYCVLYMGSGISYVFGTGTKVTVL ; wanted: its ELISA signal 0.005

# input binder: Fab VH5-51_IGHD5-18*01>3_IGHJ4*01 G100K/G104T S28R (H:KT S28R) & V3-4_IGLJ1*01 (Fab, V domains shown, Fab expressed in E. coli; Plasmid A adds CH1 with His6 and Flag tags to the heavy chain; Plasmid E adds lambda CL to the light chain; also called H:KT S28R & L:wt; G100K/G104T S28R & parent) VH: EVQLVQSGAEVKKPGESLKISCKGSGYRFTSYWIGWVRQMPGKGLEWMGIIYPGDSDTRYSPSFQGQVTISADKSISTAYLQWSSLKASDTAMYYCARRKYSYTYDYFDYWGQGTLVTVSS VL: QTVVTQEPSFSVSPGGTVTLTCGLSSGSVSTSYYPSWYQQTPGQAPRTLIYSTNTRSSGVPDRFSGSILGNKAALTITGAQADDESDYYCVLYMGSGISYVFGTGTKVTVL ; wanted: its ELISA signal 0.003

More entries:
# input binder: Fab VH5-51_IGHD5-18*01>3_IGHJ4*01 G100K/G104T G24T/S28R/G35V (H:KT TRV) & V3-4_IGLJ1*01 (Fab, V domains shown, Fab expressed in E. coli; Plasmid A adds CH1 with His6 and Flag tags to the heavy chain; Plasmid E adds lambda CL to the light chain; also called H:KT TRV & L:wt; G100K/G104T G24T/S28R/G35V & parent) VH: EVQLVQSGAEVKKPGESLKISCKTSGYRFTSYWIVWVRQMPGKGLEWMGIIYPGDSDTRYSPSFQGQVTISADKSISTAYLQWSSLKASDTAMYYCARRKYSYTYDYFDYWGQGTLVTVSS VL: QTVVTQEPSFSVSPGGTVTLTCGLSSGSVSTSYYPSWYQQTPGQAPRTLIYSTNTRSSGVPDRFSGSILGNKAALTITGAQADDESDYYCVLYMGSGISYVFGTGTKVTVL ; wanted: its ELISA signal 0.023

# input binder: Fab VH5-51_IGHD5-18*01>3_IGHJ4*01 G100K/G104T G24T/S28R/G35V (H:KT TRV) & V3-4_IGLJ1*01 M94R/S96M (L:RM) (Fab, V domains shown, Fab expressed in E. coli; Plasmid A adds CH1 with His6 and Flag tags to the heavy chain; Plasmid E adds lambda CL to the light chain; also called H:KT TRV & L:RM; G100K/G104T G24T/S28R/G35V & M94R/S96M) VH: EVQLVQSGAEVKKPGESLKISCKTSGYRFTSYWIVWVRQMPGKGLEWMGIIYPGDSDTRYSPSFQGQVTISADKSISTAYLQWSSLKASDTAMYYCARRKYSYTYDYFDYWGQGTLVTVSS VL: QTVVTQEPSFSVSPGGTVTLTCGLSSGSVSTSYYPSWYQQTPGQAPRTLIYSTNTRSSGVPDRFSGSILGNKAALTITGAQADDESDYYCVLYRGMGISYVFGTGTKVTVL ; wanted: its ELISA signal 0.062

# input binder: Fab VH5-51_IGHD5-18*01>3_IGHJ4*01 G100K/G104T (H:KT) & V3-4_IGLJ1*01 (Fab, V domains shown, Fab expressed in E. coli; Plasmid A adds CH1 with His6 and Flag tags to the heavy chain; Plasmid E adds lambda CL to the light chain; also called H:KT & L:wt; KT double mutant) VH: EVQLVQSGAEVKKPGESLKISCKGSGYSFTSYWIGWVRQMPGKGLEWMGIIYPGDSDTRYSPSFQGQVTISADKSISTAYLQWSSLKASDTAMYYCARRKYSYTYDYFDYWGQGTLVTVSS VL: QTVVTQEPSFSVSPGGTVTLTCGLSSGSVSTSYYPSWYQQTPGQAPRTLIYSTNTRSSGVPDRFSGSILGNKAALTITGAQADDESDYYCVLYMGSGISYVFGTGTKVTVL ; wanted: its ELISA signal 0.042
